Test system: Saccharomyces cerevisiae
Assay: protein stability index of tFT-peptide fusion (C-terminal peptide) (PSI (0-1 scale)); higher = more stable (slower turnover)
Details: genetic background: wild type; temperature: 30 C
Each entry below carries its recorded protein stability index.

- ENTRY_SEQUENCE: "SLPHHRPPHPRT"
  protein stability index: 0.752
- ENTRY_SEQUENCE: "RSSSLRRGIGQR"
  protein stability index: 0.688
- ENTRY_SEQUENCE: "GTCWAGAMGVVG"
  protein stability index: 0.714
- ENTRY_SEQUENCE: "LDGAGFLLSWYH"
  protein stability index: 0.749
- ENTRY_SEQUENCE: "EKCCVNSASSFG"
  protein stability index: 0.646
- ENTRY_SEQUENCE: "RQDLLILIKQKG"
  protein stability index: 0.573
- ENTRY_SEQUENCE: "SRPLVPSPPSPV"
  protein stability index: 0.663
- ENTRY_SEQUENCE: "DDSSLLMLNCLE"
  protein stability index: 0.72
- ENTRY_SEQUENCE: "IAQVDLPDRMKT"
  protein stability index: 0.694
- ENTRY_SEQUENCE: "KINAKIYGSEKG"
  protein stability index: 0.654

---

Tested on: Saccharomyces cerevisiae
Experiment: protein stability index of tFT-peptide fusion (C-terminal peptide) (PSI (0-1 scale)); higher = more stable (slower turnover)
Settings: genetic background: wild type; temperature: 30 C

- ENTRY_SEQUENCE: "MVVLSGVLPVGD"
  TARGET_OR_TEST_SYSTEM: "Saccharomyces cerevisiae"
  protein stability index: 0.642
- ENTRY_SEQUENCE: "VYAETMTKELRG"
  TARGET_OR_TEST_SYSTEM: "Saccharomyces cerevisiae"
  protein stability index: 0.69
- ENTRY_SEQUENCE: "FAPAWQTRLGCP"
  TARGET_OR_TEST_SYSTEM: "Saccharomyces cerevisiae"
  protein stability index: 0.751
- ENTRY_SEQUENCE: "ASTMAVLDYAPA"
  TARGET_OR_TEST_SYSTEM: "Saccharomyces cerevisiae"
  protein stability index: 0.621
- ENTRY_SEQUENCE: "FLASLCFFPLLC"
  TARGET_OR_TEST_SYSTEM: "Saccharomyces cerevisiae"
  protein stability index: 0.456
- ENTRY_SEQUENCE: "RRVFSAGTRCGI"
  TARGET_OR_TEST_SYSTEM: "Saccharomyces cerevisiae"
  protein stability index: 0.761
- ENTRY_SEQUENCE: "PVSEPCAWRIIA"
  TARGET_OR_TEST_SYSTEM: "Saccharomyces cerevisiae"
  protein stability index: 0.11
- ENTRY_SEQUENCE: "RLLSSPLHPPLP"
  TARGET_OR_TEST_SYSTEM: "Saccharomyces cerevisiae"
  protein stability index: 0.701
- ENTRY_SEQUENCE: "SFLAHSFLPLPP"
  TARGET_OR_TEST_SYSTEM: "Saccharomyces cerevisiae"
  protein stability index: 0.631
- ENTRY_SEQUENCE: "GRVSSTRKVGAI"
  TARGET_OR_TEST_SYSTEM: "Saccharomyces cerevisiae"
  protein stability index: 0.678

---

Test system: Saccharomyces cerevisiae;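 note: PSI is a weighted mean of sequencing reads over stability bins, variants kept only with over 10 reads, mCherry proximal and sfGFP distal, peptide attached via GGGS linker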
Assay: protein stability index of tFT-peptide fusion (C-terminal peptide) (PSI (0-1 scale)); higher = more stable (slower turnover)
Settings: genetic background: wild type; temperature: 30 C
Each entry below carries its recorded protein stability index.

- ENTRY_SEQUENCE: "HWPSGGGGPASH"
  protein stability index: 0.753
- ENTRY_SEQUENCE: "PYPPPPRLLVSP"
  protein stability index: 0.736
- ENTRY_SEQUENCE: "SPLGAADTRQEP"
  protein stability index: 0.687
- ENTRY_SEQUENCE: "RAKGTGRRLGVA"
  protein stability index: 0.676
- ENTRY_SEQUENCE: "FPPCCSSFFGFF"
  protein stability index: 0.752
- ENTRY_SEQUENCE: "ALEFNGLVAGRL"
  protein stability index: 0.727
- ENTRY_SEQUENCE: "QKPKDYTEDKRD"
  protein stability index: 0.718
- ENTRY_SEQUENCE: "RGRAGPVVRELT"
  protein stability index: 0.646
- ENTRY_SEQUENCE: "PKVRQLLLTRVL"
  protein stability index: 0.547
- ENTRY_SEQUENCE: "VVYFGVVVEGQV"
  protein stability index: 0.514
- ENTRY_SEQUENCE: "TESGKEKLDVIS"
  protein stability index: 0.689
- ENTRY_SEQUENCE: "GWCVWGVFSTAL"
  protein stability index: 0.631
- ENTRY_SEQUENCE: "CSPAFRPIVFVL"
  protein stability index: 0.225
- ENTRY_SEQUENCE: "GKKKREWKKNRI"
  protein stability index: 0.382
- ENTRY_SEQUENCE: "RVPPSRLSLPLS"
  protein stability index: 0.695
- ENTRY_SEQUENCE: "GRKQMKINDWNI"
  protein stability index: 0.636
- ENTRY_SEQUENCE: "APDPPGLRGLSP"
  protein stability index: 0.719
- ENTRY_SEQUENCE: "HPRLLLYLPTSS"
  protein stability index: 0.726
- ENTRY_SEQUENCE: "GVFLVWWVGFWV"
  protein stability index: 0.374
- ENTRY_SEQUENCE: "HSRALLPYLSYH"
  protein stability index: 0.518
- ENTRY_SEQUENCE: "ISIAATPHVSQP"
  protein stability index: 0.661
- ENTRY_SEQUENCE: "SPGRPSSPPRPR"
  protein stability index: 0.744
- ENTRY_SEQUENCE: "PPPPLPPAPPLP"
  protein stability index: 0.661
- ENTRY_SEQUENCE: "NGVGGMHGINIM"
  protein stability index: 0.696
- ENTRY_SEQUENCE: "VGGGGRARRRGS"
  protein stability index: 0.701
- ENTRY_SEQUENCE: "LLSPHPSCRPTP"
  protein stability index: 0.584
- ENTRY_SEQUENCE: "ALSVGGGSGSWY"
  protein stability index: 0.736
- ENTRY_SEQUENCE: "LRGKLGNCLGLL"
  protein stability index: 0.733
- ENTRY_SEQUENCE: "TQKKSTQLIKKK"
  protein stability index: 0.698
- ENTRY_SEQUENCE: "CPHSLDTFVSKF"
  protein stability index: 0.704
- ENTRY_SEQUENCE: "RHLPPAPAPRFI"
  protein stability index: 0.717
- ENTRY_SEQUENCE: "PPPPPPAPPSPA"
  protein stability index: 0.726
- ENTRY_SEQUENCE: "NVTCRPDKNELT"
  protein stability index: 0.643
- ENTRY_SEQUENCE: "CVAFLAGIVSFL"
  protein stability index: 0.525
- ENTRY_SEQUENCE: "SQGDVLLFMFLW"
  protein stability index: 0.548
- ENTRY_SEQUENCE: "VGIFQLCCALGG"
  protein stability index: 0.47
- ENTRY_SEQUENCE: "LFLSLSGSYRCI"
  protein stability index: 0.532
- ENTRY_SEQUENCE: "HAIPAPDLYHTQ"
  protein stability index: 0.651
- ENTRY_SEQUENCE: "SGRRRAPPAPSP"
  protein stability index: 0.732
- ENTRY_SEQUENCE: "AHLPSPRPRPPP"
  protein stability index: 0.764
- ENTRY_SEQUENCE: "LLNAGAMKGRLG"
  protein stability index: 0.678
- ENTRY_SEQUENCE: "LPSFPRISPPSI"
  protein stability index: 0.656
- ENTRY_SEQUENCE: "PPRPSSRVPPPA"
  protein stability index: 0.65
- ENTRY_SEQUENCE: "GVYFMGVLGREG"
  protein stability index: 0.655
- ENTRY_SEQUENCE: "TPGYWVPPPTIP"
  protein stability index: 0.66
- ENTRY_SEQUENCE: "RHTARQSTTWRG"
  protein stability index: 0.695
- ENTRY_SEQUENCE: "EHCGRGMGSGAA"
  protein stability index: 0.673
- ENTRY_SEQUENCE: "GLGREVAIMNTW"
  protein stability index: 0.669
- ENTRY_SEQUENCE: "CLPPSPASFHPL"
  protein stability index: 0.65
- ENTRY_SEQUENCE: "VSPFSILLPVPL"
  protein stability index: 0.608
- ENTRY_SEQUENCE: "VSGEWSFLVRVQ"
  protein stability index: 0.39
- ENTRY_SEQUENCE: "WGGGGPGWGSRG"
  protein stability index: 0.621
- ENTRY_SEQUENCE: "DTDLWFASVFSS"
  protein stability index: 0.793
- ENTRY_SEQUENCE: "LFSCTQLLPITA"
  protein stability index: 0.245
- ENTRY_SEQUENCE: "GAGGVRCPWVFG"
  protein stability index: 0.674
- ENTRY_SEQUENCE: "APFMSLSNTIAR"
  protein stability index: 0.677
- ENTRY_SEQUENCE: "AGGGCALGDGWS"
  protein stability index: 0.649
- ENTRY_SEQUENCE: "KNESIRKKKPKK"
  protein stability index: 0.734
- ENTRY_SEQUENCE: "KRDFILFSASVD"
  protein stability index: 0.627
- ENTRY_SEQUENCE: "LFPLSSPFPSTS"
  protein stability index: 0.766
- ENTRY_SEQUENCE: "NRDGWWVSNGCR"
  protein stability index: 0.796
- ENTRY_SEQUENCE: "KIRKYTKGQIMQ"
  protein stability index: 0.687
- ENTRY_SEQUENCE: "GPPPPPPFPPLP"
  protein stability index: 0.708
- ENTRY_SEQUENCE: "LAVPPSLPPPTR"
  protein stability index: 0.725
- ENTRY_SEQUENCE: "KKKQKKVSNKQT"
  protein stability index: 0.699
- ENTRY_SEQUENCE: "KTERRKEENTGE"
  protein stability index: 0.665
- ENTRY_SEQUENCE: "WVRLWGVLEAQG"
  protein stability index: 0.363
- ENTRY_SEQUENCE: "FPPPPPSFSQPL"
  protein stability index: 0.741
- ENTRY_SEQUENCE: "GGGVSFWLGAVA"
  protein stability index: 0.647
- ENTRY_SEQUENCE: "VGVVRAGWGGAV"
  protein stability index: 0.65
- ENTRY_SEQUENCE: "GRYRRRLPLCRG"
  protein stability index: 0.663
- ENTRY_SEQUENCE: "RGGGGPTVEDRR"
  protein stability index: 0.681
- ENTRY_SEQUENCE: "WPLVGLIGVPGR"
  protein stability index: 0.668
- ENTRY_SEQUENCE: "RQRGNMEIRIRR"
  protein stability index: 0.709
- ENTRY_SEQUENCE: "LYSPLLCRLPFP"
  protein stability index: 0.666
- ENTRY_SEQUENCE: "TEHLLTRGRRNT"
  protein stability index: 0.64
- ENTRY_SEQUENCE: "IPTVSLLHLPPV"
  protein stability index: 0.699
- ENTRY_SEQUENCE: "LSLTIYVSELFR"
  protein stability index: 0.587
- ENTRY_SEQUENCE: "DDGRDTLCGRGS"
  protein stability index: 0.68
- ENTRY_SEQUENCE: "MAIRSPACRLRF"
  protein stability index: 0.674
- ENTRY_SEQUENCE: "LRSMLRCPSPLS"
  protein stability index: 0.759
- ENTRY_SEQUENCE: "CIRSSSTEPCLP"
  protein stability index: 0.685
